PROTOCOL_TEXT: amyloid nucleation score (Sup35N fusion, yeast selection) (log enrichment); library NNK3; higher = more nucleation; inactive = no reads after selection;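 note: zero at mode of non-aggregating sequences after 7 days selection at 30°C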
PROPERTY: amyloid nucleation score

> print(dat)
              substance  endpoint.value
1  WIHRMLSSGVDSPRNTSLWT        inactive
2       TRWQRCSAIPPVGEA        inactive
3                DWSWFK        inactive
4              FVKCSRMF        inactive
5  GSGLPLTALRSTYVAAPHSE        inactive

Okay, here is my list. What is amyloid nucleation score for each of these?
1. VDSSMDLHSIS
2. VLGPLQLRRIAHETGRCNAM
3. IGMVHCIAEDARRLLLYIWV
4. PLTFRTMVFKALVEAWRKFN

1. inactive
2. inactive
3. inactive
4. inactive

Okay, here is my list. What is amyloid nucleation score for each of these?
1. YRDTICPYETAREDMNYLLG
2. WLPPRVMLFTPLRQWLYR
3. SYPGQLRSPVSV
4. YNNCYRCEN
5. VYDDSTIDT

1. inactive
2. inactive
3. inactive
4. inactive
5. inactive

###

PROTOCOL_TEXT: amyloid nucleation score (Sup35N fusion, yeast selection) (log enrichment); library NNK2; higher = more nucleation; inactive = no reads after selection
PROPERTY: amyloid nucleation score

> print(dat)
       sequence.string  endpoint.value
1   IRWGNRLTLERGFFKPFY        inactive
2  ILQVPRTFFIRSHRSSVHL        inactive
3     CRDSPVKNQGPYLGFM        inactive

###

PROTOCOL_TEXT: amyloid nucleation score (Sup35N fusion, yeast selection) (log enrichment); library NNK3; higher = more nucleation; inactive = no reads after selection
PROPERTY: amyloid nucleation score

// solved cases for amyloid nucleation score follow
> print(dat)
              substance  endpoint.value
1  IWNSRSSCPECALATLETWA        inactive
2         AGLSQNRSRIRSY            -0.2
3  RCDIFTTTFEFREVHCLWVG        inactive
4  ADYLLSYACQSTLSHQKKRP          -0.854
5  KDWQTIYQLRSVTFFDLLVV        inactive

Okay, here is my list. What is amyloid nucleation score for each of these?
1. IGKRSVRVIDPVFYKPFANM
2. VLLMLLTV
3. RTVIGLPASMLLSCDHISFV
4. FFGPLPRTAIYQHILCTRNG
5. AWRRSSEGYRFGNDYVTRAT

1: inactive; 2: inactive; 3: inactive; 4: 0.665; 5: inactive

###

PROTOCOL_TEXT: amyloid nucleation score (Sup35N fusion, yeast selection) (log enrichment); library NNK3; higher = more nucleation; inactive = no reads after selection
PROPERTY: amyloid nucleation score

> print(dat)
        sequence.string  endpoint.value
1  LMSSGVGLPFSDTSAWLIVW        inactive
2  PVSNRLSCDSAFTFPYNMIF           0.883
3            RAGTKLPLYL        inactive

###

PROTOCOL_TEXT: amyloid nucleation score (Sup35N fusion, yeast selection) (log enrichment); library NNK3; higher = more nucleation; inactive = no reads after selection
PROPERTY: amyloid nucleation score

// solved cases for amyloid nucleation score follow
> print(dat)
              substance                  property  endpoint.value
1            NVILYGKNLS  amyloid nucleation score        inactive
2  SSASYVHCDFYIFGGLAPSN  amyloid nucleation score             2.8
3                GILFNK  amyloid nucleation score        inactive
4           MAPPNIWFQCQ  amyloid nucleation score        inactive
5  GFYWYTVFAVSLDDCLSKSS  amyloid nucleation score        inactive

Okay, here is my list. What is amyloid nucleation score for each of these?
1. LSPQSIVSYYTLWTFGFTAC
2. ALWYENDCRWLDEVHRARTG
3. YFFSVLG
4. FTSFSYYMVCFCADIIKQG

-0.28
inactive
inactive
1.97

Okay, here is my list. What is amyloid nucleation score for each of these?
1. VYYVNS
2. VRITSMPTFWRIEPGYLERV
3. TISFGMMHLAIDWVIVN
4. SKKSDF
5. AISGIPESIVMLSYFRL
6. PMMGSLYFVP
7. VEDCSFAVVKILWYRPFMIW

0.492
inactive
inactive
inactive
inactive
inactive
inactive

Okay, here is my list. What is amyloid nucleation score for each of these?
1. VVNRHGYLAMLK
2. LSWIASSGKGWSTTMCISTM

["inactive", "inactive"]
